Record form. Attribute: viability, T/C. Fill in for each entry.
System: 991263-137-R1-J2-PDC complex spheroid viability
Test: Anticancer human tumor 991263-137-R1-J2-PDC patient-derived colon adenocarcinoma cell line growth inhibition [POLQ]
Conditions: second compound 0.316 µM; first compound 0.1 µM; stronger effect = lower value
Unit % implied. Number only.

Consider the compound shown here: CC1COCCN1c1cc(C2(O)CC3CCC(C2)O3)c2cnn(-c3ccn[nH]3)c2n1 (centres undefined) + Nc1ccc(C#CCN(C(=O)Cc2ncc(C(F)(F)F)cc2C(F)(F)F)c2ccc(F)cc2)nn1 What is its recorded viability, T/C?
108

Consider the compound shown here: C=CCn1c(=O)c2cnc(Nc3ccc(N4CCN(C)CC4)cc3)nc2n1-c1cccc(C(C)(C)O)n1 + Cc1cccc(N(C)C(=O)C2C(O)CCN2c2nc(C)cc(C(F)(F)F)c2C#N)c1 What is its recorded viability, T/C?
119

Consider the compound shown here: C=CC(=O)N1CCN(c2nc(=O)n(-c3c(C)ccnc3C(C)C)c3nc(-c4c(O)cccc4F)c(F)cc23)C(C)C1 (centres undefined) + Nc1ccc(C#CCN(C(=O)Cc2ncc(C(F)(F)F)cc2C(F)(F)F)c2ccc(F)cc2)nn1 What is its recorded viability, T/C?
105

Consider the compound shown here: COc1cccc(OCCCN)c1-c1cc(Nc2cnc(C#N)cn2)n[nH]1 + Cc1cccc(N(C)C(=O)C2C(O)CCN2c2nc(C)cc(C(F)(F)F)c2C#N)c1 What is its recorded viability, T/C?
94

---

System: 991263-137-R1-J2-PDC complex spheroid viability
Test: Anticancer human tumor 991263-137-R1-J2-PDC cell line growth inhibition [POLQ];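 note: spheroids exposed to compounds for 7 days before readout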;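 for viability, T/C: 100% = DMSO vehicle control viability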
Details: second compound 0.316 µM; first compound 0.000316 µM; stronger effect = lower value
Record form. Attribute: viability, T/C. Fill in for each entry.
Unit % implied. Number only.

Consider the compound shown here: CC[C@@]1(O)C(=O)OCc2c1cc1n(c2=O)Cc2cc3c(CN(C)C)c(O)ccc3nc2-1 + COC1C(OC(N)=O)C(O)C(Oc2ccc3c(O)c(NC(=O)c4ccc(O)c(CC=C(C)C)c4)c(=O)oc3c2C)OC1(C)C What is its recorded viability, T/C?
110

Consider the compound shown here: CC[C@@]1(O)C(=O)OCc2c1cc1n(c2=O)Cc2cc3c(CN(C)C)c(O)ccc3nc2-1 + Nc1ccc(C#CCN(C(=O)Cc2ncc(C(F)(F)F)cc2C(F)(F)F)c2ccc(F)cc2)nn1 What is its recorded viability, T/C?
108

Consider the compound shown here: CC[C@@]1(O)C(=O)OCc2c1cc1n(c2=O)Cc2cc3c(CN(C)C)c(O)ccc3nc2-1 + Cc1cccc(N(C)C(=O)C2C(O)CCN2c2nc(C)cc(C(F)(F)F)c2C#N)c1 What is its recorded viability, T/C?
117

---

Record form. Attribute: IC50. Fill in for each entry.
Test system: 991263-137-R1-J2-PDC complex spheroid viability
Assay: Anticancer human tumor 991263-137-R1-J2-PDC cell line growth inhibition [POLQ];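 note: spheroids exposed to compounds for 7 days before readout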
Conditions: curve of first compound; second compound 0.1 µM
Unit nM implied. Number only.

# value lookup — system 991263-137-R1-J2-PDC complex spheroid viability, readout IC50, item CC1COCCN1c1cc(C2(O)CC3CCC(C2)O3)c2cnn(-c3ccn[nH]3)c2n1 (stereo not given) + COC1C(OC(N)=O)C(O)C(Oc2ccc3c(O)c(NC(=O)c4ccc(O)c(CC=C(C)C)c4)c(=O)oc3c2C)OC1(C)C
1930

# value lookup — system 991263-137-R1-J2-PDC complex spheroid viability, readout IC50, item COc1ccc([C@@H](O)c2cc(-c3ncnc4cc(N5CCOCC5)ccc34)c(F)cc2Cl)nn1 + COC1C(OC(N)=O)C(O)C(Oc2ccc3c(O)c(NC(=O)c4ccc(O)c(CC=C(C)C)c4)c(=O)oc3c2C)OC1(C)C
4120

# value lookup — system 991263-137-R1-J2-PDC complex spheroid viability, readout IC50, item COc1cccc2c1C(=O)c1c(O)c3c(c(O)c1C2=O)CC(O)(C(=O)CO)CC3OC1CC(N)C(O)C(C)O1 (stereo not given) + Nc1ccc(C#CCN(C(=O)Cc2ncc(C(F)(F)F)cc2C(F)(F)F)c2ccc(F)cc2)nn1
1480

# value lookup — system 991263-137-R1-J2-PDC complex spheroid viability, readout IC50, item Nc1ccn(C2OC(CO)C(O)C2(F)F)c(=O)n1 (stereo not given) + Cc1cccc(N(C)C(=O)C2C(O)CCN2c2nc(C)cc(C(F)(F)F)c2C#N)c1
1310

---

Tested on: 991263-137-R1-J2-PDC complex spheroid viability
Experiment: Anticancer human tumor 991263-137-R1-J2-PDC cell line growth inhibition [POLQ];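 note: spheroids exposed to compounds for 7 days before readout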;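 for viability, T/C: 100% = DMSO vehicle control viability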
Details: second compound 0.1 µM; first compound 0.0316 µM; stronger effect = lower value
Procedure: Multicellular complex tumor spheroid response to Polymerase (POL) inhibitors (novobiocin, ART-558, RP6685) in combination with a variety of drugs and investigational agents in selected tumor cell lines The POL inhibitors (novobiocin, ART-558, and RP6685) were evaluated both individually and in combination with standard of care and investigational anticancer small molecules within a complex spheroid model of solid tumors. . […]
quantity.measured: viability, T/C (%)
Unit % implied. Number only.

Consider the compound shown here: COc1cccc2c1C(=O)c1c(O)c3c(c(O)c1C2=O)CC(O)(C(=O)CO)CC3OC1CC(N)C(O)C(C)O1 (stereo unspecified) + COC1C(OC(N)=O)C(O)C(Oc2ccc3c(O)c(NC(=O)c4ccc(O)c(CC=C(C)C)c4)c(=O)oc3c2C)OC1(C)C What is its recorded viability, T/C?
104

Consider the compound shown here: CC[C@@]1(O)C(=O)OCc2c1cc1n(c2=O)Cc2cc3c(CN(C)C)c(O)ccc3nc2-1 + Cc1cccc(N(C)C(=O)C2C(O)CCN2c2nc(C)cc(C(F)(F)F)c2C#N)c1 What is its recorded viability, T/C?
105

Consider the compound shown here: C=CC(=O)N1CCN(c2nc(=O)n(-c3c(C)ccnc3C(C)C)c3nc(-c4c(O)cccc4F)c(F)cc23)C(C)C1 (stereo unspecified) + Nc1ccc(C#CCN(C(=O)Cc2ncc(C(F)(F)F)cc2C(F)(F)F)c2ccc(F)cc2)nn1 What is its recorded viability, T/C?
102

Consider the compound shown here: O=C(Nc1ccc(O)c(NS(=O)(=O)c2ccc(F)cc2)c1)c1ccc(-c2ccccc2)cc1 + COC1C(OC(N)=O)C(O)C(Oc2ccc3c(O)c(NC(=O)c4ccc(O)c(CC=C(C)C)c4)c(=O)oc3c2C)OC1(C)C What is its recorded viability, T/C?
110

Consider the compound shown here: O=c1[nH]cc(F)c(=O)[nH]1 + COC1C(OC(N)=O)C(O)C(Oc2ccc3c(O)c(NC(=O)c4ccc(O)c(CC=C(C)C)c4)c(=O)oc3c2C)OC1(C)C What is its recorded viability, T/C?
103

Consider the compound shown here: CCc1c2c(nc3ccc(O)cc13)-c1cc3c(c(=O)n1C2)COC(=O)[C@]3(O)CC + COC1C(OC(N)=O)C(O)C(Oc2ccc3c(O)c(NC(=O)c4ccc(O)c(CC=C(C)C)c4)c(=O)oc3c2C)OC1(C)C What is its recorded viability, T/C?
52.9

Consider the compound shown here: Nc1ccn(C2OC(CO)C(O)C2(F)F)c(=O)n1 (stereo unspecified) + COC1C(OC(N)=O)C(O)C(Oc2ccc3c(O)c(NC(=O)c4ccc(O)c(CC=C(C)C)c4)c(=O)oc3c2C)OC1(C)C What is its recorded viability, T/C?
67.6

Consider the compound shown here: Nc1ccn(C2OC(CO)C(O)C2(F)F)c(=O)n1 (stereo unspecified) + Cc1cccc(N(C)C(=O)C2C(O)CCN2c2nc(C)cc(C(F)(F)F)c2C#N)c1 What is its recorded viability, T/C?
99.4

Consider the compound shown here: CC1COCCN1c1cc(C2(O)CC3CCC(C2)O3)c2cnn(-c3ccn[nH]3)c2n1 (stereo unspecified) + Cc1cccc(N(C)C(=O)C2C(O)CCN2c2nc(C)cc(C(F)(F)F)c2C#N)c1 What is its recorded viability, T/C?
110

Consider the compound shown here: CC1COCCN1c1cc(C2(O)CC3CCC(C2)O3)c2cnn(-c3ccn[nH]3)c2n1 (stereo unspecified) + COC1C(OC(N)=O)C(O)C(Oc2ccc3c(O)c(NC(=O)c4ccc(O)c(CC=C(C)C)c4)c(=O)oc3c2C)OC1(C)C What is its recorded viability, T/C?
102

Consider the compound shown here: COc1cc(C2c3cc4c(cc3C(OC3OC5COC(C)OC5C(O)C3O)C3COC(=O)C23)OCO4)cc(OC)c1O (stereo unspecified) + Nc1ccc(C#CCN(C(=O)Cc2ncc(C(F)(F)F)cc2C(F)(F)F)c2ccc(F)cc2)nn1 What is its recorded viability, T/C?
115

Consider the compound shown here: O=c1[nH]cc(F)c(=O)[nH]1 + Cc1cccc(N(C)C(=O)C2C(O)CCN2c2nc(C)cc(C(F)(F)F)c2C#N)c1 What is its recorded viability, T/C?
107

Consider the compound shown here: CC1COCCN1c1cc(C2(O)CC3CCC(C2)O3)c2cnn(-c3ccn[nH]3)c2n1 (stereo unspecified) + Nc1ccc(C#CCN(C(=O)Cc2ncc(C(F)(F)F)cc2C(F)(F)F)c2ccc(F)cc2)nn1 What is its recorded viability, T/C?
88.2

Consider the compound shown here: O=C(Nc1ccc(O)c(NS(=O)(=O)c2ccc(F)cc2)c1)c1ccc(-c2ccccc2)cc1 + Cc1cccc(N(C)C(=O)C2C(O)CCN2c2nc(C)cc(C(F)(F)F)c2C#N)c1 What is its recorded viability, T/C?
96.8

Consider the compound shown here: COc1cccc2c1C(=O)c1c(O)c3c(c(O)c1C2=O)CC(O)(C(=O)CO)CC3OC1CC(N)C(O)C(C)O1 (stereo unspecified) + Nc1ccc(C#CCN(C(=O)Cc2ncc(C(F)(F)F)cc2C(F)(F)F)c2ccc(F)cc2)nn1 What is its recorded viability, T/C?
103

Consider the compound shown here: CC1COCCN1c1cc(C2(S(C)(=N)=O)CC2)nc(-c2ccnc3[nH]ccc23)n1 (stereo unspecified) + Nc1ccc(C#CCN(C(=O)Cc2ncc(C(F)(F)F)cc2C(F)(F)F)c2ccc(F)cc2)nn1 What is its recorded viability, T/C?
114

Consider the compound shown here: CCc1cc2c(N3CCc4c(cc(Cn5ccnc5)cc4-c4cn(C)nc4C(F)(F)F)C3=O)ccnc2c(OC)n1 + COC1C(OC(N)=O)C(O)C(Oc2ccc3c(O)c(NC(=O)c4ccc(O)c(CC=C(C)C)c4)c(=O)oc3c2C)OC1(C)C What is its recorded viability, T/C?
104

Consider the compound shown here: Nc1ccn(C2OC(CO)C(O)C2(F)F)c(=O)n1 (stereo unspecified) + Nc1ccc(C#CCN(C(=O)Cc2ncc(C(F)(F)F)cc2C(F)(F)F)c2ccc(F)cc2)nn1 What is its recorded viability, T/C?
89.6

Consider the compound shown here: COc1cccc(OCCCN)c1-c1cc(Nc2cnc(C#N)cn2)n[nH]1 + Nc1ccc(C#CCN(C(=O)Cc2ncc(C(F)(F)F)cc2C(F)(F)F)c2ccc(F)cc2)nn1 What is its recorded viability, T/C?
100

Consider the compound shown here: CCCS(=O)(=O)Nc1ccc(F)c(C(=O)c2c[nH]c3ncc(-c4ccc(Cl)cc4)cc23)c1F + Nc1ccc(C#CCN(C(=O)Cc2ncc(C(F)(F)F)cc2C(F)(F)F)c2ccc(F)cc2)nn1 What is its recorded viability, T/C?
97.6

Consider the compound shown here: CCc1cc2c(N3CCc4c(cc(Cn5ccnc5)cc4-c4cn(C)nc4C(F)(F)F)C3=O)ccnc2c(OC)n1 + Nc1ccc(C#CCN(C(=O)Cc2ncc(C(F)(F)F)cc2C(F)(F)F)c2ccc(F)cc2)nn1 What is its recorded viability, T/C?
97.1
